Target: human platelet phospholipase A2 (Homo sapiens, UniProt P14555)
Construct: a preparation of human platelet phospholipase A2; from tissue; host or cells: human platelets
Sequence (P14555 21-144): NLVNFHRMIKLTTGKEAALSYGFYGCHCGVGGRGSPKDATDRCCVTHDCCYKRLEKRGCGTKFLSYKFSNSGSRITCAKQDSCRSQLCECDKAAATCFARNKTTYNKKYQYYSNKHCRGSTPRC
Assay: Inhibition of human platelet phospholipase A2 (14C-oleate E. coli substrate)
Assay type: biochemical
Settings: @ 10 μM (values marked *); read-out: Inhibition of PLA2, % Inhibition @ *10 μM
Outcome: 1 for inhibition at 10 µM of at least 60%; 0 for anything lower.

Task: Given the entry CCCCCCCCOc1ccc(C2=CC(=O)OC2O)cc1OC (stereo not drawn) , answer whether its inhibition at 10 µM meets or surpasses 60%.
Result: 0

Task: Given the entry CCCCCCCCOc1ccccc1C1=CC(=O)OC1O (stereo not drawn) , answer whether its inhibition at 10 µM meets or surpasses 60%.
Result: 0

Task: Given the entry CCCCCCCCOc1ccc(C2=CC(=O)OC2O)cc1NC(C)=O (stereo not drawn) , answer whether its inhibition at 10 µM meets or surpasses 60%.
Result: 0

Task: Given the entry CCCCCCCCOc1ccc(C2=CC(=O)OC2O)cc1Cl (stereo not drawn) , answer whether its inhibition at 10 µM meets or surpasses 60%.
Result: 1

Task: Given the entry O=C1C=C(c2cccc(C#Cc3ccccc3)c2)C(O)O1 (stereo not drawn) , answer whether its inhibition at 10 µM meets or surpasses 60%.
Result: 0

Task: Given the entry CC1=C(C/C=C(\C)CCCOc2ccc(C3=CC(=O)OC3O)cc2)C(C)(C)CCC1 (stereo not drawn) , answer whether its inhibition at 10 µM meets or surpasses 60%.
Result: 1

Task: Given the entry CCCCCCCCOc1ccc(C2=CC(=O)OC2O)c(OC)c1 (stereo not drawn) , answer whether its inhibition at 10 µM meets or surpasses 60%.
Result: 0

Task: Given the entry O=C1C=C(c2ccc(C#Cc3cccc([N+](=O)[O-])c3)cc2)C(O)O1 (stereo not drawn) , answer whether its inhibition at 10 µM meets or surpasses 60%.
Result: 0

Task: Given the entry O=C1C=C(c2ccc(C#Cc3ccc([N+](=O)[O-])cc3)cc2)C(O)O1 (stereo not drawn) , answer whether its inhibition at 10 µM meets or surpasses 60%.
Result: 0

Task: Given the entry CCCCCCCCN(C(C)=O)c1ccc(C2=CC(=O)OC2O)cc1 (stereo not drawn) , answer whether its inhibition at 10 µM meets or surpasses 60%.
Result: 0

Task: Given the entry CCCCCOc1ccc(SC2=CC(=O)OC2O)cc1 (stereo not drawn) , answer whether its inhibition at 10 µM meets or surpasses 60%.
Result: 0

Task: Given the entry CCCCCCCCOc1ccc(C2=CC(=O)OC2O)c(Cl)c1 (stereo not drawn) , answer whether its inhibition at 10 µM meets or surpasses 60%.
Result: 1

Task: Given the entry O=C1C=C(c2ccc(C#Cc3cc4ccccc4s3)cc2)C(O)O1 (stereo not drawn) , answer whether its inhibition at 10 µM meets or surpasses 60%.
Result: 0

Task: Given the entry O=C1C=C(c2ccc(C#Cc3ccc(C(F)(F)F)cc3)cc2)C(O)O1 (stereo not drawn) , answer whether its inhibition at 10 µM meets or surpasses 60%.
Result: 0

Task: Given the entry CCCCCCCCOc1ccc(C2=CC(=O)OC2O)cc1[N+](=O)[O-] (stereo not drawn) , answer whether its inhibition at 10 µM meets or surpasses 60%.
Result: 1

Task: Given the entry CCCCCCCCS(=O)(=O)c1ccc(C2=CC(=O)OC2O)cc1 (stereo not drawn) , answer whether its inhibition at 10 µM meets or surpasses 60%.
Result: 0

Task: Given the entry CCCCCCCCCCCCCOc1ccc(SC2=CC(=O)OC2O)cc1 (stereo not drawn) , answer whether its inhibition at 10 µM meets or surpasses 60%.
Result: 1

Task: Given the entry CC(C)c1cc(C2=CC(=O)OC2O)cc(C(C)C)c1O (stereo not drawn) , answer whether its inhibition at 10 µM meets or surpasses 60%.
Result: 0
